Below: a set of entries, each annotated with reported log10 of Ki.
Assay: Inhibition of Vibrio parahaemolyticus MetAp1a by Morrison method
Base-10 log of Ki, unit nM.

compound Cc1nc(-c2ccccn2)nc(NCCNc2cccc(C(F)(F)F)n2)c1Cl , log10 of Ki observed: 3.90

---

Assay: Inhibition of Vibrio cholerae MetAp1a by Morrison method
pKi: −log10 of the molar value.
I would appreciate it if you labelled entries met when pKi is 6 or higher, otherwise not met.

| compound | class_label |
| --- | --- |
| Cc1cc(Oc2cc(Cl)cc(Cl)c2)nc(-c2ccccn2)n1 | met |
| Cc1nc(-c2ccccn2)nc(NCCc2ccccc2)c1Cl | met |

Confirm if pKi reported for the compound Cc1nc(-c2ccccn2)nc(SCC(=O)c2ccc(F)cc2)c1Cl is 6 or above.
not met

Hello, I need to know if Cc1nc(-c2ccc(C(F)(F)F)cn2)nc(N2CCCCC2)c1Cl has measured pKi not below 6. Thanks!
not met

Is reported pKi greater than or equal to 6 here: Nc1cc(O)nc(-c2ccccn2)n1
met

Dear colleague, could you confirm whether CCCc1nc(-c2ccccn2)nc(OC(=O)N(C)C)c1Cc1c(F)cccc1Cl has pKi at or above 6?
met

Reported pKi at or above 6? Cc1nc(-c2ccccn2)nc(O)c1Cc1c(Cl)cccc1Cl
met

Say whether FC(F)(F)c1cc(Nc2cc(Cl)cc(Cl)c2)nc(-c2ccccn2)n1 shows pKi of 6 or more.
met

State whether the measured pKi reaches 6, counting equality as reaching it, for C=CC(C)c1c(O)nc(-c2ccccn2)nc1CCC (stereo unspecified)
met

---

pKi values for the molecules below.
Experiment: Inhibition of Vibrio coralliilyticus MetAp1a by Morrison method
FYI, pKi means -log10 of a concentration in mol per litre.

Here is how some molecules turned out for pKi.
| molecule | pKi |
| --- | --- |
| Cc1cc(S)nc(-c2ccccn2)n1 | 4.79 |
| Cc1nc(-c2ccccn2)nc(O)c1CC1CC1 | 5.03 |
| CCCCCc1c(C)nc(-c2ccccn2)nc1O | 4.94 |
| CC(=O)Nc1cc(O)nc(-c2ccccn2)n1 | 5.29 |
| CCOC(=O)c1cnc(-c2ccccn2)nc1O | 5.23 |

Sure, the documented pKi for Nc1cc(O)nc(-c2ccccn2)n1 is 4.93

GET /value?item= COCc1nc(-c2ccccn2)nc(O)c1CC1CC1 &field=pKi returns 4.56

get_value(item= Oc1nc(-c2ccccn2)nc2c1CSCC2 , readout=pKi) returns 5.12

For record C=CC(C)c1c(O)nc(-c2ccccn2)nc1CCC (stereo not given) the listed pKi is 5.14

What the record says about c1ccc(-c2ccccn2)nc1 : pKi is 5.55

molecule CCCc1nc(-c2ccccn2)nc(O)c1CC1CC1 , pKi observed: 5.04

// sample Oc1cc(C(F)(F)F)nc(-c2ccccn2)n1 , its pKi was 4.88

Form field pKi, entry Cc1cc(O)nc(-c2ccccn2)n1 : 5.17

get_value(item= CC(C)S(=O)(=O)c1cnc(-c2ccccn2)nc1N , readout=pKi) returns 4.31

Entry Cc1nc(-c2ccccn2)nc(O)c1Cc1c(Cl)cccc1Cl , pKi reported as 4.99

---

Assay: Inhibition of Vibrio cholerae MetAp1a by Morrison method
experimental_readout: pKi
The quantity pKi is defined as the negative base-10 logarithm of the molar concentration.

Study these solved cases before continuing.
| entry_smiles | pKi |
| --- | --- |
| Cc1nc(-c2ccccn2)nc(NC2CCN(c3ncc(C(F)(F)F)cc3Cl)CC2)c1Cl | 5.32 |
| Cc1nc(-c2ccccn2)nc(N2CCN(CCO)CC2)c1Cl | 6.22 |
| Cc1cc(O)nc(-c2ccccn2)n1 | 6.52 |

Kindly consider the entry below.
pKi measured on Cc1nc(-c2ccc(C(F)(F)F)cn2)nc(Sc2ccc(Cl)cc2)c1Cl = 5.16

---

// values below are reported log10 Ki
Assay: Inhibition of Vibrio cholerae MetAp1a by Morrison method
Base-10 log of Ki, unit µM.

Memo: Oc1nc(-c2ccccn2)nc2c1CSCC2 , reported log10 Ki: 1.59

Lab note: Oc1cc(C(F)(F)F)nc(-c2ccccn2)n1 gave log10 Ki of -0.82

Record Cc1nc(-c2ccccn2)nc(N2CCOCC2)c1Cl , field log10 Ki: -0.06

The compound Cc1nc(-c2ccccn2)nc(N2CCN(c3ncnc4scc(-c5ccccc5)c34)CC2)c1Cl showed log10 Ki equal to -0.32

For reference, reported log10 Ki for Cc1nc(-c2ccccn2)nc(SCC(=O)N2CCOCC2)c1Cl stands at 0.90

The compound listed as CCCCCc1c(C)nc(-c2ccccn2)nc1O shows log10 Ki equal to -0.14

---

List of Ki values.
Test: Inhibition of human MetAp1a by Morrison method
Provide only the numeric value, understood in nM.

Past entries and their recorded results:
| entry_smiles | value |
| --- | --- |
| Cc1nc(-c2ccccn2)nc(N(C)c2ccccc2)c1Cl | 770 |
| Cc1cc(S)nc(-c2ccccn2)n1 | 150 |
| Nc1cc(O)nc(-c2ccccn2)n1 | 650 |
| Cc1nc(-c2ccccn2)nc(N2CCOCC2)c1Cl | 110 |

For this compound ( CC(C)S(=O)(=O)c1cnc(-c2ccccn2)nc1N ), measured Ki is 220

---

Assay: Inhibition of Vibrio parahaemolyticus MetAp1a by Morrison method
experimental_readout: Ki (µM)
# value in µM; strip the unit string

The following compounds have reported results that may help.
| entry_smiles | unit_string | Ki |
| --- | --- | --- |
| c1ccc(-c2ccccn2)nc1 | µM | 2.91 |
| Nc1cc(O)nc(-c2ccccn2)n1 | µM | 0.24 |
| Cc1nc(-c2ccccn2)nc(N2CCOCC2)c1Cl | µM | 1.62 |
| COCc1nc(-c2ccccn2)nc(O)c1CC1CC1 | µM | 0.25 |
| Cc1nc(-c2ccccn2)nc(N2CCN(c3ncnc4scc(-c5ccccc5)c34)CC2)c1Cl | µM | 1.95 |

Consider now this further compound.
Input Cc1nc(-c2ccccn2)nc(N2CCCN(Cc3ccc(Cl)cc3Cl)CC2)c1Cl . Output Ki: 3.23

---

Assay: Inhibition of human MetAp1a by Morrison method
Each entry below lists one item and its recorded pKi value.
Scale for pKi: -log10 of concentration given in mol/L; no unit attached.

Here are 10 compounds together with their reported answers.
| compound | pKi |
| --- | --- |
| CC(=O)Nc1cc(O)nc(-c2ccccn2)n1 | 5.83 |
| Cc1nc(-c2ccc(C(F)(F)F)cn2)nc(N2CCCCC2)c1Cl | 4.25 |
| Cc1cc(Oc2cc(Cl)cc(Cl)c2)nc(-c2ccccn2)n1 | 5.38 |
| C=CC(C)c1c(O)nc(-c2ccccn2)nc1CCC (configuration not stated) | 7.10 |
| Cc1nc(-c2ccccn2)nc(N2CCCN(Cc3ccc(Cl)cc3Cl)CC2)c1Cl | 6.07 |
| COCc1nc(-c2ccccn2)nc(O)c1CC1CC1 | 6.54 |
| CCCCCc1c(C)nc(-c2ccccn2)nc1O | 7.15 |
| Oc1cc(C(F)(F)F)nc(-c2ccccn2)n1 | 7.00 |
| CCN(CC)C(=O)Oc1nc(-c2ccccn2)nc(COC)c1CC1CC1 | 6.35 |
| CCCc1nc(-c2ccccn2)nc(OC(=O)N(C)C)c1Cc1c(F)cccc1Cl | 6.74 |

Kindly note the recorded pKi for Oc1nc(-c2ccccn2)nc2c1CSCC2 , which is 6.12

Quick note, pKi for Cc1cc(O)nc(-c2ccccn2)n1 landed at 6.21

---

Assay: Inhibition of human MetAp1a by Morrison method
experimental_readout: Ki

Worked cases, answers included:
| entry_smiles | value |
| --- | --- |
| CCCc1nc(-c2ccccn2)nc(O)c1CC1CC1 | 1380 nM |
| Cc1cc(Oc2ccc(Cl)cc2)nc(-c2ccccn2)n1 | 230 nM |
| CCOC(=O)c1cnc(-c2ccccn2)nc1O | 510 nM |
| Cc1nc(-c2ccccn2)nc(O)c1CC1CC1 | 130 nM |

The value of Ki measured for the compound Cc1nc(-c2ccccn2)nc(SCC(=O)c2ccc(F)cc2)c1Cl turned out to be 2350 nM

For this compound ( c1ccc(-c2ccccn2)nc1 ), measured Ki is 390 nM

According to the records, this compound CSc1nc(-c2ccccn2)nc(N)c1C#N displays Ki of 210 nM

---

Assay: Inhibition of Vibrio parahaemolyticus MetAp1a by Morrison method
experimental_readout: Ki (nM)
Report as a plain number; the unit nM is understood.

| molecule | Ki, nM |
| --- | --- |
| CCCc1nc(-c2ccccn2)nc(OC(=O)N(C)C)c1Cc1c(F)cccc1Cl | 600 |
| Cc1cc(Oc2ccc(Cl)cc2)nc(-c2ccccn2)n1 | 350 |
| Cc1nc(-c2ccccn2)nc(NC2CCN(c3ncc(C(F)(F)F)cc3Cl)CC2)c1Cl | 4560 |
| CC(C)S(=O)(=O)c1cnc(-c2ccccn2)nc1N | 35000 |
| Cc1nc(-c2ccccn2)nc(SCC(=O)N2CCOCC2)c1Cl | 12600 |
| FC(F)(F)c1nc(-c2ccccn2)ncc1-c1nnnn1-c1ccc(Cl)cc1 | 10800 |
| Cc1cc(O)nc(-c2ccccn2)n1 | 210 |
| Cc1cc(Oc2cc(Cl)cc(Cl)c2)nc(-c2ccccn2)n1 | 280 |

Lab book: Ki of CCN(CC)C(=O)Oc1nc(-c2ccccn2)nc(COC)c1CC1CC1 noted as 2810

Please fill in: Ki reported for C=CC(C)c1c(O)nc(-c2ccccn2)nc1CCC (centres undefined) = 150

What the record says about Cc1nc(-c2ccccn2)nc(O)c1CC1CC1 : Ki is 80

# Ki of Cc1cc(S)nc(-c2ccccn2)n1 = 200

Briefly, Ki measured for Cc1nc(-c2ccccn2)nc(SCC(=O)c2ccc(F)cc2)c1Cl : 1900

GET /value?item= Cc1nc(-c2ccccn2)nc(N(C)c2ccccc2)c1Cl &field=Ki returns 240

get_value(item= FC(F)(F)c1cccc(-c2nc(-c3ccccn3)ncc2-c2nnnn2-c2ccccc2)c1 , readout=Ki) returns 2730

The molecule identified as Oc1nc(-c2ccccn2)nc2c1CSCC2 registered its Ki at 24000

Data origin: ChEMBL document CHEMBL4706612
